// data source = the supplement of paper PMC6733853

Log(tau/KA) transduction coefficient (log10) reference
Biological target: delta opioid receptor (rat) (UniProt P33533)
Sequence (P33533 whole entry): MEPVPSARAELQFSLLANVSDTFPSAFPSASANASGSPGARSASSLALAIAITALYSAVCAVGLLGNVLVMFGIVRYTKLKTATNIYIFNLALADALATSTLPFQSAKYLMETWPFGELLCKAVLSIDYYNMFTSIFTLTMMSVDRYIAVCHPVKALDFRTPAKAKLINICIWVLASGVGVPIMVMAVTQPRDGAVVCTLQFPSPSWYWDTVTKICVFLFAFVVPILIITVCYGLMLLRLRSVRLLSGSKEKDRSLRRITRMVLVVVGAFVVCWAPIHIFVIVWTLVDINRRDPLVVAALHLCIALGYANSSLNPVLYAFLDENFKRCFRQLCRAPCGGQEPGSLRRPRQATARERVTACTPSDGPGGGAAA
Assay: Log(tau/KA) transduction coefficient (log10 (M-1)); higher = more effective agonism
Settings: receptor: rat DOR; βarrestine 2-GRK5
quantity.kind: Log(tau/KA) transduction coefficient (log10)

| compound | system.under.test | experimental.result |
| --- | --- | --- |
| CN(C)C(=O)C(CCN1CCC(O)(c2ccc(Cl)cc2)CC1)(c1ccccc1)c1ccccc1 [Loperamide] | delta opioid receptor (rat) (UniProt P33533) | 4.61 |
| CSCC[C@H](NC(=O)[C@H](Cc1ccccc1)NC(=O)CNC(=O)CNC(=O)[C@@H](N)Cc1ccc(O)cc1)C(=O)O | delta opioid receptor (rat) (UniProt P33533) | 7.03 |
| COc1ccc2c3c1O[C@H]1C(=O)CC[C@@]4(O)[C@@H](C2)N(C)CC[C@]314 | delta opioid receptor (rat) (UniProt P33533) | 3.5 |
| CN1CC[C@]23c4c5ccc(O)c4O[C@H]2[C@@H](O)C=C[C@H]3[C@H]1C5 | delta opioid receptor (rat) (UniProt P33533) | 4.53 |

====

Target: delta opioid receptor (human) (UniProt P41143)
Sequence (P41143 whole entry): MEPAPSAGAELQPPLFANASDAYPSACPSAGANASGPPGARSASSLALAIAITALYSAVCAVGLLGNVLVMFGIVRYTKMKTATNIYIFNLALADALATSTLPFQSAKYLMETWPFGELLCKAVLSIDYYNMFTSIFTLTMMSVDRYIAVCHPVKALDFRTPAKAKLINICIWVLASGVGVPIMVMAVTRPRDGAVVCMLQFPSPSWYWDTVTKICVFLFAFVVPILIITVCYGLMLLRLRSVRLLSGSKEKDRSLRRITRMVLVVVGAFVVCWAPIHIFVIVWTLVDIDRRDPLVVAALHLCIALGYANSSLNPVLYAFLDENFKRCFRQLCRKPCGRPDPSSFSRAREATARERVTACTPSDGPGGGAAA
Test: Log(tau/KA) transduction coefficient (log10 (M-1)); higher = more effective agonism
Conditions: receptor: human DOR; βarrestine 2-GRK5
// reported Log(tau/KA) transduction coefficient (log10) per item
quantity.kind: Log(tau/KA) transduction coefficient (log10)

| molecule | experimental.result |
| --- | --- |
| CN(C)C(=O)C(CCN1CCC(O)(c2ccc(Cl)cc2)CC1)(c1ccccc1)c1ccccc1 [Loperamide] | 4.71 |
| COc1ccc2c3c1O[C@H]1C(=O)CC[C@@]4(O)[C@@H](C2)N(C)CC[C@]314 [Oxycodone] | 3.15 |
| CN1CC[C@]23c4c5ccc(O)c4O[C@H]2[C@@H](O)C=C[C@H]3[C@H]1C5 [Morphine] | 4.04 |
| CSCC[C@H](NC(=O)[C@H](Cc1ccccc1)NC(=O)CNC(=O)CNC(=O)[C@@H](N)Cc1ccc(O)cc1)C(=O)O [Met-Enk] | 7.12 |

====

Target: delta opioid receptor (human)
Test: Log(tau/KA) transduction coefficient (log10 (M-1)); higher = more effective agonism
Settings: receptor: human DOR; Kir
quantity.kind: Log(tau/KA) transduction coefficient (log10)

| compound | experimental.result |
| --- | --- |
| CSCC[C@H](NC(=O)[C@H](Cc1ccccc1)NC(=O)CNC(=O)CNC(=O)[C@@H](N)Cc1ccc(O)cc1)C(=O)O | 7.27 |
| CN(C)C(=O)C(CCN1CCC(O)(c2ccc(Cl)cc2)CC1)(c1ccccc1)c1ccccc1 [Loperamide] | 5.54 |
| CN1CC[C@]23c4c5ccc(O)c4O[C@H]2[C@@H](O)C=C[C@H]3[C@H]1C5 | 5.05 |
| COc1ccc2c3c1O[C@H]1C(=O)CC[C@@]4(O)[C@@H](C2)N(C)CC[C@]314 | 3.72 |
| CO[C@@]12CC[C@@]3(C[C@@H]1[C@](C)(O)C(C)(C)C)[C@H]1Cc4ccc(O)c5c4[C@@]3(CCN1CC1CC1)[C@H]2O5 | 4.88 |

====

Examples of molecules with documented Log(tau/KA) transduction coefficient (log10) follow.
Biological target: mu opioid receptor (rat) (UniProt P33535)
Sequence (P33535 whole entry): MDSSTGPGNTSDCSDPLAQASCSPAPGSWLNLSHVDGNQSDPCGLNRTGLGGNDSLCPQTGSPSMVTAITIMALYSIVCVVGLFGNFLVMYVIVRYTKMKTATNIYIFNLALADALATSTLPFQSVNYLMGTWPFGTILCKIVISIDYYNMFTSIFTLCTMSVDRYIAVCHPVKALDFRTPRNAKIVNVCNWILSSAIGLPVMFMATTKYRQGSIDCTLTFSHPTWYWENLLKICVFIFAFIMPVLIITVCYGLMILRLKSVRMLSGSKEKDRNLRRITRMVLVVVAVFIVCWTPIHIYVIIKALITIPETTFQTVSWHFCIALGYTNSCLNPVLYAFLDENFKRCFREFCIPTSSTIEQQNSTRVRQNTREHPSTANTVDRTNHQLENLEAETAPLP
Experiment: Log(tau/KA) transduction coefficient (log10 (M-1)); higher = more effective agonism
Conditions: receptor: rat MOR; βarrestine 2-GRK6
quantity.kind: Log(tau/KA) transduction coefficient (log10)

| molecule | experimental.result |
| --- | --- |
| C[C@@H](NC(=O)[C@@H](N)Cc1ccc(O)cc1)C(=O)NCC(=O)N(C)[C@@H](Cc1ccccc1)C(=O)NCCO [DAMGO] | 5.9 |
| CN1CC[C@]23c4c5ccc(O)c4O[C@H]2[C@@H](O)C=C[C@H]3[C@H]1C5 [Morphine] | 5.35 |
| CN(C)C(=O)C(CCN1CCC(O)(c2ccc(Cl)cc2)CC1)(c1ccccc1)c1ccccc1 [Loperamide] | 6.04 |
| CSCC[C@H](NC(=O)[C@H](Cc1ccccc1)NC(=O)CNC(=O)CNC(=O)[C@@H](N)Cc1ccc(O)cc1)C(=O)O [Met-Enk] | 6.06 |
| COc1ccc2c3c1O[C@H]1C(=O)CC[C@@]4(O)[C@@H](C2)N(C)CC[C@]314 [Oxycodone] | 4.81 |

====

Biological target: mu opioid receptor (rat)
Assay: Log(tau/KA) transduction coefficient (log10 (M-1)); higher = more effective agonism
Details: receptor: rat MOR; Gαi2
Outcome: class 1 for Log(tau/KA) transduction coefficient (log10) of at least 8; class 0 for anything lower.

| compound | system.under.test | assigned.class |
| --- | --- | --- |
| CSCC[C@H](NC(=O)[C@H](Cc1ccccc1)NC(=O)CNC(=O)CNC(=O)[C@@H](N)Cc1ccc(O)cc1)C(=O)O | mu opioid receptor (rat) | class 1 |
| COc1ccc2c3c1O[C@H]1C(=O)CC[C@@]4(O)[C@@H](C2)N(C)CC[C@]314 | mu opioid receptor (rat) | class 0 |
| CO[C@@]12CC[C@@]3(C[C@@H]1[C@](C)(O)C(C)(C)C)[C@H]1Cc4ccc(O)c5c4[C@@]3(CCN1CC1CC1)[C@H]2O5 | mu opioid receptor (rat) | class 0 |
| CN(C)C(=O)C(CCN1CCC(O)(c2ccc(Cl)cc2)CC1)(c1ccccc1)c1ccccc1 [Loperamide] | mu opioid receptor (rat) | class 1 |
| COc1cccc(C2(O)CCCCC2CN(C)C)c1 (stereo not drawn) | mu opioid receptor (rat) | class 0 |
| CN1CC[C@]23c4c5ccc(O)c4O[C@H]2[C@@H](O)C=C[C@H]3[C@H]1C5 | mu opioid receptor (rat) | class 1 |
| CCC1(c2cccc(O)c2)CCCCN(C)C1 (stereo not drawn) | mu opioid receptor (rat) | class 0 |
| C[C@@H](NC(=O)[C@@H](N)Cc1ccc(O)cc1)C(=O)NCC(=O)N(C)[C@@H](Cc1ccccc1)C(=O)NCCO | mu opioid receptor (rat) | class 0 |

====

Recorded Log(tau/KA) transduction coefficient (log10) by entry
Molecular target: delta opioid receptor (rat)
Assay: Log(tau/KA) transduction coefficient (log10 (M-1)); higher = more effective agonism
Settings: receptor: rat DOR; Kir
quantity.kind: Log(tau/KA) transduction coefficient (log10)

| compound | experimental.result |
| --- | --- |
| COc1ccc2c3c1O[C@H]1C(=O)CC[C@@]4(O)[C@@H](C2)N(C)CC[C@]314 | 3.29 |
| CO[C@@]12CC[C@@]3(C[C@@H]1[C@](C)(O)C(C)(C)C)[C@H]1Cc4ccc(O)c5c4[C@@]3(CCN1CC1CC1)[C@H]2O5 | 4.6 |
| CSCC[C@H](NC(=O)[C@H](Cc1ccccc1)NC(=O)CNC(=O)CNC(=O)[C@@H](N)Cc1ccc(O)cc1)C(=O)O | 4.97 |
| CN(C)C(=O)C(CCN1CCC(O)(c2ccc(Cl)cc2)CC1)(c1ccccc1)c1ccccc1 [Loperamide] | 5.02 |
| CN1CC[C@]23c4c5ccc(O)c4O[C@H]2[C@@H](O)C=C[C@H]3[C@H]1C5 | 4.79 |

====

Biological target: delta opioid receptor (human) (UniProt P41143)
Test: Log(tau/KA) transduction coefficient (log10 (M-1)); higher = more effective agonism
Details: receptor: human DOR; βarrestine 2-GRK6
Outcome: met for Log(tau/KA) transduction coefficient (log10) of at least 4; not met for anything lower.

| compound | assigned.class |
| --- | --- |
| CO[C@@]12CC[C@@]3(C[C@@H]1[C@](C)(O)C(C)(C)C)[C@H]1Cc4ccc(O)c5c4[C@@]3(CCN1CC1CC1)[C@H]2O5 [Buprenorphine] | not met |
| COc1ccc2c3c1O[C@H]1C(=O)CC[C@@]4(O)[C@@H](C2)N(C)CC[C@]314 [Oxycodone] | not met |
| CSCC[C@H](NC(=O)[C@H](Cc1ccccc1)NC(=O)CNC(=O)CNC(=O)[C@@H](N)Cc1ccc(O)cc1)C(=O)O [Met-Enk] | met |
| CN(C)C(=O)C(CCN1CCC(O)(c2ccc(Cl)cc2)CC1)(c1ccccc1)c1ccccc1 [Loperamide] | met |

====

Biological target: UniProtKB P33535
Test: Log(tau/KA) transduction coefficient (log10 (M-1)); higher = more effective agonism
Conditions: receptor: rat MOR; Kir
# Log(tau/KA) transduction coefficient (log10) per entry
quantity.kind: Log(tau/KA) transduction coefficient (log10)

| molecule | experimental.result |
| --- | --- |
| COc1cccc(C2(O)CCCCC2CN(C)C)c1 (stereo not drawn) [Tramadol] | 3.81 |
| CN(C)C(=O)C(CCN1CCC(O)(c2ccc(Cl)cc2)CC1)(c1ccccc1)c1ccccc1 [Loperamide] | 6.46 |
| COc1ccc2c3c1O[C@H]1C(=O)CC[C@@]4(O)[C@@H](C2)N(C)CC[C@]314 [Oxycodone] | 5.97 |
| CN1CC[C@]23c4c5ccc(O)c4O[C@H]2[C@@H](O)C=C[C@H]3[C@H]1C5 [Morphine] | 7.44 |
| C[C@@H](NC(=O)[C@@H](N)Cc1ccc(O)cc1)C(=O)NCC(=O)N(C)[C@@H](Cc1ccccc1)C(=O)NCCO [DAMGO] | 7.11 |
| CCC1(c2cccc(O)c2)CCCCN(C)C1 (stereo not drawn) [Meptazinol] | 5.41 |
| CO[C@@]12CC[C@@]3(C[C@@H]1[C@](C)(O)C(C)(C)C)[C@H]1Cc4ccc(O)c5c4[C@@]3(CCN1CC1CC1)[C@H]2O5 [Buprenorphine] | 8.05 |
| CSCC[C@H](NC(=O)[C@H](Cc1ccccc1)NC(=O)CNC(=O)CNC(=O)[C@@H](N)Cc1ccc(O)cc1)C(=O)O [Met-Enk] | 6.72 |
